Below, each of the molecules is paired with its reported % Ctrl, EGFR(T790M) value.
# assayed.system: kinases (Homo sapiens, UniProt P00533, T790M)
# Construct: purchased Eurofins/DiscoveRx; host or cells: E. coli BL21-derived host (T7 phage display) for most kinases; HEK-293 for the rest
# measurement.description: KINOMEscan kinase binding assay (Eurofins/DiscoveRx), % Ctrl
# condition.notes: 1 μM; target EGFR(T790M)
# Procedure: Kinase binding assays were performed at Eurofins/DiscoveRx using the general KINOMEscan Protocol (Fabian, M. A. et al., “A small molecule-kinase interaction map for clinical kinase inhibitors,” Nat. Biotechnol. 2005, 23(3):329-36). For most assays, kinase-tagged T7 phage strains were prepared in an E. coli host derived from the BL21 strain. […] The kinase concentration in the eluates was measured by qPCR. […]
endpoint: % Ctrl, EGFR(T790M) (% Ctrl)

INSERT INTO results (compound_structure_string, assayed_system, assay_result) VALUES
  ('Cc1cc2c([nH]1)/C=C1\C(=O)Nc3ccc(cc31)-c1cnn(C)c1OCCCN(C)C2=O', 'kinases (Homo sapiens, UniProt P00533, T790M)', 26),
  ('Cc1cc2c([nH]1)/C=C1\C(=O)Nc3ccc(cc31)-c1c(noc1C(C)C)COCCN(C)C2=O', 'kinases (Homo sapiens, UniProt P00533, T790M)', 100),
  ('Cc1cc2c([nH]1)/C=C1\C(=O)Nc3cc(Cl)c(cc31)SCCOCCN(C)C2=O', 'kinases (Homo sapiens, UniProt P00533, T790M)', 69),
  ('CN1CCOc2cc3c(cc2Cl)NC(=O)/C3=C\c2[nH]ccc2C(=O)N(C)CC1', 'kinases (Homo sapiens, UniProt P00533, T790M)', 97),
  ('Cc1cc2c([nH]1)/C=C1\C(=O)Nc3cnc(cc31)-c1cnn(C)c1CN(C)CCN(C)C2=O', 'kinases (Homo sapiens, UniProt P00533, T790M)', 22);
